# assay.procedure: Partition coefficient (logP)
# Format: physicochemical
# condition.parameters: octanol/water
One threshold, 2, splits the recorded logP values: lower ones are t, equal or higher ones are f.

Would you kindly verify if logP of O=C(O)C1=CC2CCC1C2 (configuration not stated) is strictly less than 2?
t

Would you kindly verify if logP of CC/C=C\C(=O)O is strictly less than 2?
t

Would you kindly verify if logP of C/C=C/C(=C\CC)C(=O)O is strictly less than 2?
f

Would you kindly verify if logP of CCCC(CCC)C(=O)O [VALPROIC ACID] is strictly less than 2?
f

Would you kindly verify if logP of O=C(O)C=C1CCCCCCC1 is strictly less than 2?
f

Would you kindly verify if logP of CC/C=C(\CC)C(=O)O is strictly less than 2?
f

Would you kindly verify if logP of CC/C=C(\CCCC)C(=O)O is strictly less than 2?
f

Would you kindly verify if logP of O=C(O)C1=CCCCC1 is strictly less than 2?
t

Would you kindly verify if logP of O=C(O)C=C1CCCC1 is strictly less than 2?
t

Would you kindly verify if logP of O=C(O)C1=CCCC1 is strictly less than 2?
t

Would you kindly verify if logP of O=C(O)C=C1CCCCC1 is strictly less than 2?
f

Would you kindly verify if logP of CC/C=C(\C)C(=O)O is strictly less than 2?
t

Would you kindly verify if logP of C/C=C\C(=C/CC)C(=O)O is strictly less than 2?
f

Would you kindly verify if logP of CC/C=C(\CCC)C(=O)O is strictly less than 2?
f

Would you kindly verify if logP of CC/C=C/C(=O)O is strictly less than 2?
t

Would you kindly verify if logP of CC(C)=CC(=O)O is strictly less than 2?
t

Would you kindly verify if logP of O=C(O)C=C1CCCCCC1 is strictly less than 2?
f
